Record form. Attribute: IC50. Fill in for each entry.
- Test system: H1975
- assayInfo: CCK-8 proliferation, NCI-H1975 (H1975)
- Format: cell-based, Human
- conditionNotes: Homo sapiens, NCI-H1975; CCK-8; 96 hours; read-out: Inhibitory activity (IC50) on tumor cell proliferation, H1975

Some entries whose results are on file:
CN1CCN([C@@H]2CCCN(c3cnc(C(N)=O)c(Nc4ccc(C5CCN(Cc6ccc(N7CCC(=O)NC7=O)cc6F)CC5)cc4)n3)C2)C1=O [GT-04803] = 500 to 1000 nM
Cc1nc2c(F)cc(-c3nc(Nc4ccc(N5CCC(N6CCN(Cc7cccc(N8CCC(=O)NC8=O)c7)CC6)CC5)cn4)ncc3F)cc2n1C(C)C [GT-06740] = 100 to 500 nM

Please turn your attention to the following entry.
Input: For H1975, provide IC50 of O=C1CCC(Nc2ncccc2CN2CCN(c3ccc(-c4cc(F)c5c(c4)C(=O)N(C(C(=O)Nc4nccs4)c4ncn6c4CCC6)C5)cc3)CC2)C(=O)N1 (stereo not drawn) [GT-07489] please.
Output: 10 to 50 nM

====

- targetOrSystem: human Cereblon WT GST-tagged protein (Homo sapiens)
- Construct: purchased CISBIO 64BDCRBNPEH
- assayInfo: CRBN binding, HTRF (CEREBLON BINDING kit)
- conditionNotes: Table II-2, CRBN binding screening, HTRF; at 2 µM; read-out: Inhibition rate (%) at 2 µM
- Description: The CEREBLON BINDING kits (specification: 10,000 tests; product number: Catalog # 64BDCRBNPEH; CISBIO company) was used to determine the CRBN binding ability of the compounds to be tested through a HTRF method (homogeneous time-resolved fluorescence). […] After sealing and incubating the solutions in the aforementioned wells at room temperature for 3 hours, the […] at emission wavelengths of 620 nm and 665 nm were detected by the HTRF method using a Spark microplate reader (V3.1 SP1).
reportedMetric: inhibition at 2 µM

Could you tell me inhibition at 2 µM for each of these compounds? They are listed below.
1. C[C@@H]1CNC(=O)c2cc3ccc(C(=O)Nc4cnn(Cc5ccc(N6CCC(N7CCN(Cc8cc(N9CCC(=O)NC9=O)cnc8F)CC7)CC6)cc5)c4)nc3n21
2. CC(C)(O)c1cc2nn(C3CCN(Cc4ccnc(C5CCC(=O)NC5=O)c4)CC3)cc2cc1NC(=O)c1cccc(C(F)(F)F)n1 (stereo not drawn)
3. O=C1CCN(c2cnc(F)c(CN3CCC(n4cc(NC(=O)c5cnn6ccc(N7C[C@H]8C[C@@H]7CO8)nc56)c(C(F)F)n4)CC3)c2)C(=O)N1
4. CNC(=O)c1ccccc1Nc1cc(Nc2ccc(N3CCN(Cc4ccc(C5CCC(=O)NC5=O)cc4)CC3)cc2OC)ncc1C(F)(F)F (stereo not drawn)
5. CNC(=O)c1ccccc1Nc1cc(Nc2cc(C)c(C3CCN(Cc4ccc(N5CCC(=O)NC5=O)cn4)CC3)cc2OC(C)C)ncc1C(F)(F)F
6. O=C1CCN(c2cncc(CN3CCC(n4cc(NC(=O)c5cnn6ccc(N7C[C@H]8C[C@@H]7CO8)nc56)c(C(F)F)n4)CC3)c2)C(=O)N1

Output:
["53 to 60%", "60 to 80%", "60 to 80%", "60 to 80%", "53 to 60%", "80 to 100%"]

====

- Tested on: H1975
- assayInfo: CCK-8 proliferation, NCI-H1975 (H1975)
- Format: cell-based, Human
- conditionNotes: Homo sapiens, NCI-H1975; CCK-8; 96 hours; read-out: Inhibitory activity (IC50) on tumor cell proliferation, H1975
reportedMetric: IC50

For every record below, what is its IC50?
1. Cc1nc2c(F)cc(-c3nc(Nc4ccc(N5CCC(N6CCN(Cc7ccc(C8CCC(=O)NC8=O)cc7)CC6)CC5)cn4)ncc3F)cc2n1C(C)C (stereo not drawn) [GT-03905]
2. O=C1CCN(c2cc(CN3CCN(c4ccc(-c5cc(F)c6c(c5)C(=O)N(C(C(=O)Nc5nccs5)c5ncn7c5CCC7)C6)cc4)CC3)c(F)cn2)C(=O)N1 (stereo not drawn) [GT-07378]
3. O=C1CCC(c2ccc(CN3C[C@H]4C[C@@H]3CN4c3ccc(-c4cc(F)c5c(c4)C(=O)N(C(C(=O)Nc4nccs4)c4ncn6c4CCC6)C5)cc3)cc2)C(=O)N1 (stereo partly drawn) [GT-06176]

Output:
100 to 500 nM
1 to 10 nM
1 to 10 nM

====

- Test system: MGC-803
- assayInfo: CCK-8 proliferation, MGC-803 (heads: MGC80-3, MGC803)
- Type: cell-based, Human
- conditionNotes: Table B10, compounds designed based on the IRAK4 inhibitors; MGC803 cells; read-out: Inhibitory activity (IC50, nM) on tumor cell proliferation, MGC803
reportedMetric: IC50

Input: Record lookup: for MGC-803, what IC50 belongs to O=C1CCN(c2ccc(CN3CCN(c4ccc5c(c4)nc(NC(=O)c4cccc(C(F)(F)F)c4)n5[C@H]4CC[C@@H](CO)CC4)CC3)cn2)C(=O)N1 ?
Output: 100 to 500 nM

====

- targetOrSystem: human Cereblon WT GST-tagged protein (Homo sapiens, UniProt Q96SW2)
- Construct: purchased CISBIO 64BDCRBNPEH
- Sequence (Q96SW2 whole entry): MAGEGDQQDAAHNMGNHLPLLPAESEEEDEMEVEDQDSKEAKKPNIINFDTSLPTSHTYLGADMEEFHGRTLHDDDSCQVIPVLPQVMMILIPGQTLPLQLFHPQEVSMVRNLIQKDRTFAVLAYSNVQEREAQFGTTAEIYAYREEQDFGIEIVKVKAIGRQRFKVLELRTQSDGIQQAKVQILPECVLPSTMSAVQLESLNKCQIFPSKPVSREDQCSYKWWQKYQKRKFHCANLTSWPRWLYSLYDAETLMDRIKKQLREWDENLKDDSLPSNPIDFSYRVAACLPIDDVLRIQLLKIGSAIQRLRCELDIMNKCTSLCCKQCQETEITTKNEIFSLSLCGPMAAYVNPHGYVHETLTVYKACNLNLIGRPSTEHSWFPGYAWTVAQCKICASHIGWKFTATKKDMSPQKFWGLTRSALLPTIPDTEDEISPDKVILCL
- assayInfo: CRBN binding, HTRF (CEREBLON BINDING kit)
- conditionNotes: Table II-2, CRBN binding screening, HTRF; at 2 µM; read-out: Inhibition rate (%) at 2 µM
Please go through the items and note down their inhibition at 2 µM.

O=C1CCN(c2ccc(CCl)nc2)C(=O)N1 = 60 to 80%
O=C1CCN(c2cnc(CN3CCN(c4ccc(-c5cc(F)c6c(c5)C(=O)N(C(C(=O)Nc5nccs5)c5ncn7c5CCC7)C6)cc4)CC3)cn2)C(=O)N1 (stereo not shown) = 53 to 60%
CC(C)Nc1cc(-n2ccc3cc(C#N)cnc32)ncc1C(=O)NC1CCN(Cc2cc(C3CCC(=O)NC3=O)cnc2F)CC1 (stereo not shown) = 80 to 100%
COc1cc2nn(C3CCN(Cc4cc(N5CCC(=O)NC5=O)cnc4F)CC3)cc2cc1NC(=O)c1cccc(C(F)(F)F)n1 = 60 to 80%
C[C@@H]1CNC(=O)c2cc3ccc(C(=O)Nc4cnn(Cc5ccc(N6CCC(N7CCN(Cc8cccc(N9CCC(=O)NC9=O)c8)CC7)CC6)cc5)c4)nc3n21 = 53 to 60%
CC(C)(O)c1cc2nn(C3CCN(Cc4cncc(C5CCC(=O)NC5=O)c4)CC3)cc2cc1NC(=O)c1cccc(C(F)(F)F)n1 (stereo not shown) = 60 to 80%

Here are 4 compounds. What values of inhibition at 2 µM were reported for them?
1. CNC(=O)c1ccccc1Nc1cc(Nc2cc(C)c(N3CCC(N(C)Cc4ccc(C5CCC(=O)NC5=O)cc4)CC3)cc2OC(C)C)ncc1C(F)(F)F (stereo not shown)
2. CC(=O)c1c(C)c2cnc(Nc3ccc(N4CCN(Cc5cncc(N6CCC(=O)NC6=O)c5)CC4)cn3)nc2n(C2CCCC2)c1=O
3. C[C@@H]1CNC(=O)c2cc3ccc(C(=O)Nc4cnn(Cc5ccc(N6CCC(N7CCN(Cc8cncc(C9CCC(=O)NC9=O)c8)CC7)CC6)cc5)c4)nc3n21 (stereo partly shown)
4. Cc1nc2c(F)cc(-c3nc(Nc4ccc(N5CCC(N6CCN(Cc7ccnc(N8CCC(=O)NC8=O)c7)CC6)CC5)cn4)ncc3F)cc2n1C(C)C

Output:
1. 53 to 60%
2. 80 to 100%
3. 60 to 80%
4. 53 to 60%

Record inhibition at 2 µM for all entries; do not skip any.
1. CN(C)C(=O)c1cc2cnc(Nc3ccc(N4CCN(Cc5cncc(C6CCC(=O)NC6=O)c5)CC4)cn3)nc2n1C1CCCC1 (stereo not shown)
2. Cn1cc(-c2cc(S(C)(=O)=O)ccc2OCc2cccc(NC3CCC(=O)NC3=O)c2)c2cc[nH]c2c1=O (stereo not shown)
3. CC(C)(O)c1cc2nc(C3CCN(Cc4cncc(N5CCC(=O)NC5=O)c4)CC3)oc2cc1NC(=O)c1cccc(C(F)(F)F)n1

Output:
80 to 100%
60 to 80%
60 to 80%

====

- targetOrSystem: human Cereblon WT GST-tagged protein (Homo sapiens)
- Construct: purchased CISBIO 64BDCRBNPEH
- assayInfo: CRBN binding, HTRF (CEREBLON BINDING kit)
- conditionNotes: Table II-2, CRBN binding screening, HTRF; at 0.5µM; read-out: Inhibition rate (%) at 0.5µM
Task for the reader: assign each of the following molecules its reported inhibition at 0.5 µM.

CC(=O)c1c(C)c2cnc(Nc3ccc(N4CCN(Cc5cncc(C6CCC(=O)NC6=O)c5)CC4)cn3)nc2n(C2CCCC2)c1=O (stereo not drawn) = 53 to 60%
C[C@@H]1CNC(=O)c2cc3ccc(C(=O)Nc4cnn(Cc5ccc(N6CCC(N7CCN(Cc8cccc(N9CCC(=O)NC9=O)c8)CC7)CC6)cc5)c4)nc3n21 = 20 to 30%
COc1cc(N2CCN(Cc3ccc(C4CCC(=O)NC4=O)c(F)c3)CC2)ccc1Nc1ncc(Cl)c(Nc2ccccc2P(C)(C)=O)n1 (stereo not drawn) = 40 to 53%
Nc1ncnc2c1c(-c1ccc(Oc3ccccc3)cc1)nn2C1CCN(Cc2ccc(C3CCC(=O)NC3=O)c(F)c2)CC1 (stereo not drawn) = 30 to 40%
COc1cc(N2CCC(N3CCN(Cc4cc(N5CCC(=O)NC5=O)cnc4F)CC3)CC2)ccc1Nc1ncc(Cl)c(Nc2ccccc2P(C)(C)=O)n1 = 30 to 40%

Input: // fetch human Cereblon WT GST-tagged protein (Homo sapiens) inhibition at 0.5 µM for CC(C)(O)c1cc2nc(C3CCN(Cc4cc(C5CCC(=O)NC5=O)cnc4F)CC3)sc2cc1NC(=O)c1cccc(C(F)(F)F)n1 (stereo not drawn)
Output: 53 to 60%
